target: human Nav1.1 (Homo sapiens, UniProt P35498); construct: host or cells: HEK293; assay: Amplification of Nav1.1-derived voltage-dependent sodium current (Nav1.1 current), cell line stably expressing human Nav1.1, automated patch clamp; assay type: cell-based; conditions: Concentration 1 μM (Test Result 7); read-out: Nav1.1 current amplification rate (%)
Assay metric: activation at 1 µM (%)

Compound	Numeric readout
COc1cc(=O)n(CC(=O)Nc2ccc3cncnc3c2)nc1C1=CCC(C)(C)CC1	325
CC1CC=C(c2ccc(=O)n(CC(=O)Nc3ccc4ncccc4c3)n2)CC1 (centres unmarked)	59

a. CC1CC=C(c2ccc(=O)n(CC(=O)Nc3cnc4ccccc4n3)n2)CC1 (centres unmarked)
b. CC1CC=C(c2ccc(=O)n(CC(=O)Nc3ccc4cccnc4c3)n2)CC1 (centres unmarked)
Q: Which entry shows the lesser value of activation at 1 µM here, a or b ? In your reply, give the label of the chosen option.
Ans: a

###

biological target: human Nav1.1 (Homo sapiens, UniProt P35498); construct: host or cells: HEK293; assay: Amplification of Nav1.1-derived voltage-dependent sodium current (Nav1.1 current), cell line stably expressing human Nav1.1, automated patch clamp; type: cell-based; settings: compound 1 μmol/L; HEK293 stably expressing human Nav1.1; read-out: Nav1.1 current amplification rate (%)
Assay metric: activation at 1 µM (%)

Reference set, count: 10
Mol smiles	activation at 1 µM, %
O=C(Cn1nc(C2=CCCC2)ccc1=O)N1CCc2c(-c3ccnnc3)cccc21	129
CN(C)c1cc(N2CCC3(CCC3)C2)nn(CC(=O)N2CCc3c(N4CCOCC4)cccc32)c1=O	137
CC1(C)CCN(c2ccc(=O)n(CC(=O)N3CCc4c(-c5cccnc5)cccc43)n2)CC1	240
C[C@@H]1CC=C(c2ccc(=O)n(CC(=O)Nc3ccc4ncnn4c3)n2)CC1	80
Cc1cc(=O)n(CC(=O)Nc2ccn3ncnc3c2)nc1C1=CCC(C)(C)CC1	58
CC1(C)CC=C(c2ccc(=O)n(CC(=O)Nc3ccn4ncnc4c3)n2)CC1	101
O=C(Cn1nc(C2=CCCCC2)ccc1=O)N1CCc2c(Cn3ccnc3)cccc21	255
O=C(Cn1nc(C2=CCCC2)ccc1=O)N1CCc2c(-c3cccnc3)cccc21	143
Cc1ccc(-c2ccc(=O)n(CC(=O)N3CCc4c(C5CN(C6COC6)C5)cccc43)n2)cc1	130
C[C@H]1CC=C(c2ccc(=O)n(CC(=O)Nc3ccn4ncnc4c3)n2)CC1	135

A. O=C(Cn1nc(C2=CCC3(CC2)CC3)ccc1=O)Nc1ccn2ncnc2c1
B. O=C(Cn1nc(C2=CCCCC2)ccc1=O)N1CCc2c(-c3cnccn3)cccc21
C. CC1CCN(c2ccc(=O)n(CC(=O)N3CCc4c(N5CCOCC5)cccc43)n2)CC1
Q: Order by activation at 1 µM, ascending. Enter labels, ranked according to the request.
Ans: A, C, B
(A: 103%, C: 155%, B: 358%)

###

Biological target: human Nav1.1 (Homo sapiens, UniProt P35498)
Construct: host or cells: HEK293
Experiment: Amplification of Nav1.1-derived voltage-dependent sodium current (Nav1.1 current), cell line stably expressing human Nav1.1, automated patch clamp
Type: cell-based
Settings: 10 μmol/L compound; change of the area under the curve of Nav1.1 current (Test Result 1); read-out: Nav1.1 current amplification rate (%)
Experimental: Test 1: Evaluation of the Amplification of Nav1.1-Derived Voltage-Dependent Sodium Current (Nav1.1 Current) by Using a Cell Line Stably Expressing Human Nav1.1 (1) Preparation of Test Compounds […] The effect of test compounds on the amplification of Nav1.1-derived voltage-dependent sodium current was evaluated by using a cell line stably expressing human Nav1.1 and HTS automated patch clamp system. […] The Nav1.1 current amplification rates of test compounds were calculated by the following formula: […]
Assay metric: activation at 10 µM (%)

Reference set, count: 7
Mol smiles	activation at 10 µM (%)
O=C(Cn1nc(N2CCC3(CCC3)CC2)ccc1=O)Nc1ccn2cnnc2c1	66
O=C(Cn1nc(N2CCC3(CCCC3)CC2)ccc1=O)Nc1ccc2ocnc2c1	195
CN(C)c1cc(N2CCC3(CCCC3)C2)nn(CC(=O)Nc2ccc3ocnc3c2)c1=O	225
CC1(C)CCN(c2ccc(=O)n(CC(=O)Nc3ccn4ccnc4c3)n2)CC1	137
O=C(Cn1nc(N2CCC3(CCC3)C2)c(N2CCCC2)cc1=O)Nc1ccc2ocnc2c1	200
COc1ccc2c(c1)CCN2C(=O)Cn1nc(N2CCC(C)CC2)ccc1=O	95
Cc1nc2cc(NC(=O)Cn3nc(N4CCC(C)CC4)ccc3=O)cc(Cl)c2o1	183

1. O=C(Cn1nc(N2CCC3(CCC3)C2)ccc1=O)Nc1ccc2scnc2c1
2. N#Cc1ccc(NC(=O)Cn2nc(C3=CCC(F)(F)CC3)ccc2=O)cn1
Q: Which entry shows the lesser value of activation at 10 µM here, 1 or 2 ? In your reply, give the label of the chosen option.
Ans: 2
